src = the supplement of paper PMC6555819

Test system: RXRa DBDmut IVT, anti-RXR (DBD mutation: RXRa K156A/R161A, NR concentration 90 nM)
Test Summary: PBM binding z-score (relative to random genomic background probes); higher = stronger binding; sequences stand for … in GC…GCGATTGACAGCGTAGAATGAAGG
Cut-off 0.8 on PBM binding z-score, inclusive. At or above means 1 (yes); below means 0 (no).

Example results:
ATCACTAGGTAAAGATAGTTCAGTGAATGCAAAT: 0 (no)
CAAACTACGTCAAGGTCAAAGTCGGTTTGTGCCA: 1 (yes)
CAAACTAGGTCACAGAGGTCAAAGGCCGTGCGTA: 1 (yes)
ATTATTAGTTGAGACGAGGGCAACCGATAGGTTG: 0 (no)

Read the next record carefully.
hey, is PBM binding z-score for this one >= 0.8? GCCGCTAGGTCAGGTTGGTCAGCTAACGGGTACG 0 (no)
